Values from the RNAGym collection of RNA variant scans (doi:10.7554/elife.80360)

Below, each entry is listed with its recorded self-cleavage.
B1: CPEB3 Ribozyme (parent)
chain: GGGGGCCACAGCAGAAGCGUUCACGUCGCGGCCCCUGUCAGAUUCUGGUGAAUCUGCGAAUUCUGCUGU

- Variants of: B1
- assay.protocol: self-cleavage, relative activity (ratio to wild type); higher = more cleavage; co-transcriptional
measurement.name: self-cleavage

1. C6A A60C    0.17
2. G3U A13U    0.105
3. G50A U69G    1.06
4. C22A U64G    0.0937
5. C24A U53C    0.603
6. G19U A23C    0.333
7. C39A C54A    0.583
8. U61G U69G    0.999
9. G31A A59U    0.441
10. C7G U36G    0.147
11. C7A A23G    0.421
12. U20A C57G    0.092
13. U20C U67G    0.164
14. U20A U43C    0.154
15. G2A A23C    0.111
16. C6A U53G    0.195
17. C24G A60C    0.205
18. C29U G37U    0.121
19. G58U U67G    1.02
20. U20C C32A    0.192
21. C6U U20G    0.174
22. A10U U49G    1.01
